- TARGET OR TEST SYSTEM: MAGI3_5, Q5TCQ9
- Sequence (Q5TCQ9 847-941): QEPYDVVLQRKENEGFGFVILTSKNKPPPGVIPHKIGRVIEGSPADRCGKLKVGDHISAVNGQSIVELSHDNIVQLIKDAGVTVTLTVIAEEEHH
- MEASUREMENT NOTES: holdup assay
- Set-up: key: below the threshold = too weak to quantify, mostly under pKd 3.1 to 4
- CONDITION DESCRIPTION: plain residues with an end cap or a label only (N-terminal biotin on a linker: ttds)
VALUE KIND: pKd

Previously resolved entries follow.
// query I would be grateful if you could share the reported pKd for SSIDLWETAL [SLC15A5, A6NIM6] .
// result 5.57

// query I would be grateful if you could share the reported pKd for SRSRRRETAL [HPV33-E6, P06427] .
// result below the threshold

// query I would be grateful if you could share the reported pKd for PPRQRSETQV [HPV82-E6, Q9IR59] .
// result below the threshold

// query I would be grateful if you could share the reported pKd for SGGKRKETLV [NET1, Q7Z628] .
// result 3.72

// query I would be grateful if you could share the reported pKd for KLVIKTETTV [RASSF6, Q6ZTQ3] .
// result below the threshold

Further cases:
// query I would be grateful if you could share the reported pKd for PSRDRKETSI [RALBP1, Q15311] .
// result below the threshold

// query I would be grateful if you could share the reported pKd for SHSSKGETAV [FZD7, O75084] .
// result below the threshold
